Values compiled from paper PMC5842915.

Target: human Bcl-2 (residues 1-218) (human, UniProt P10415 1-218)
Sequence (P10415 1-218): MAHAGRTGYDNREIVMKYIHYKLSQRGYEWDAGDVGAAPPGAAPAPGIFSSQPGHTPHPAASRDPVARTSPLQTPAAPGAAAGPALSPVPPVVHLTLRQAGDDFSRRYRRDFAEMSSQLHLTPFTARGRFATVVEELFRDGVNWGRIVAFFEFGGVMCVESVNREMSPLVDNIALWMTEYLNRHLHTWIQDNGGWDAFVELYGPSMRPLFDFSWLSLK
Assay: ITC
EXPERIMENTAL_ENDPOINT: Kd (µM)
Lab book: enter the figure in µM, no units written.

What Kd value was documented for this binder, FTLIGEASDGGTMENLSRRLKVTGDLFDIM [BECN1 BH3 peptide (residues 97-126)] ?
9.6
